# PROTOCOL_NOTES: Acute toxicity, i.v., DM strain male mice, up-and-down method
# STATED_CONDITIONS: mouse, in vivo, iv
Assign LD50 to each entry below.
The figure you give is taken to be in mg/kg; do not add the unit.

Task: Name the recorded LD50 for COC(=O)C1=C(COC(N)=O)NC(C)=C(C(=O)OCCN(C)Cc2ccccc2)C1c1cccc([N+](=O)[O-])c1 (stereo not shown) .
Result: 200

Task: Look up LD50: CNC(=O)OCC1=C(C(=O)OC)C(c2cccc([N+](=O)[O-])c2)C(C(=O)OC)=C(C)N1 (stereo not shown)
Result: 84

Task: Reported LD50 for CCOC(=O)C1=C(C)NC(COC(=O)NC)=C(C(=O)OCC)C1c1cccc([N+](=O)[O-])c1 (stereo not shown) : what is it?
Result: 71

Task: What value of measured LD50 is listed for COC(=O)C1=C(COC(N)=O)NC(C)=C(C(=O)OCCN2CCOCC2)C1c1cccc([N+](=O)[O-])c1 (stereo not shown) ?
Result: 200
